# assayed system: Neu5Ac(a2-6)Gal(b1-4)GlcNAc(b1-2)Man(a1-3)[Gal(b1-4)GlcNAc(b1-2)Man(a1-6)]Man(b1-4)GlcNAc(b1-4)GlcNAc
# test protocol: glycan array binding signal (z-score within array); higher = stronger binding
# setup conditions: glycan notation: IUPAC condensed, linker removed
The entries come from a sample that favours the strongest signals as a whole.
quantity name: glycan array binding signal (z-score)
# answer = number (no unit)

{"binder": "Epa21 (Candida glabrata) (protein) MGSSHHHHHHSSGLVPRGSHMASTPNIESHPQGCSPVDTSGIKPGLKMDLYRFPITPPGTGCWSWDWLTVTPDFPRSGYWKWPKIAEVDGVVGPLHLDSGHPTCDPLTSVLPHGFNYLQSITTTNFTMVLHGYFVPKQSGKYTFEFKADDALLLNLGAGNAFSCCDYNNSQYNQGEYLAYAIWSKNNQTATLYLEKGIYYPIRVFYHNRCCGAYMDVVYYFNDSPIPNRDFSGLLFSIPDSDSCDANI", "glycan array binding signal (z-score)": -0.438}
{"binder": "Eosinophil-derived neurotoxin (EDN) (Homo sapiens), P10153 (protein) MVPKLFTSQICLLLLLGLLAVEGSLHVKPPQFTWAQWFETQHINMTSQQCTNAMQVINNYQRRCKNQNTFLLTTFANVVNVCGNPNMTCPSNKTRKNCHHSGSQVPLIHCNLTTPSPQNISNCRYAQTPANMFYIVACDNRDQRRDPPQYPVVPVHLDRII", "glycan array binding signal (z-score)": 1.86}

Let us examine a further case.
Sample Epa3 (Candida glabrata), Q6VBI8_CANGB (protein) MGSSHHHHHHSSGLVPRGSHMNDLGFSLFEKRELSSQNPFGYPIGCSPQDVAIIPGLTMELYSYPIVSGTPPNCYDASYVDPEYPRTGYLKRKMVGKSTGVTGNLNYKYSVEKACMVKYGNLPAGYNYNEPLTVSNFTMILYGYFKAQTTGLHTFFVNADDLLYINFGAGNAFDCCKREDSKTKLGEYVAYDIWHVDSSKNKVSLFLEKDLYYPIRMFFNNIGKDSSLDLSFSVNGATDQISDFSGYLYSVPDQPDTCPAHIGYDTTCR ; glycan array binding signal (z-score) observed: -0.331
